- Tested on: HT29
- assay: cells
- settings: Homo sapiens, HT-29, 72 h
metric-name: IC50 (µM)
Give the value, in units of µM, as a plain number.

Problem: Identify IC50 associated with the compound CCN(CC)CCCC(C)Nc1ccnc2cc(Cl)ccc12 (stereo not shown)
Solution: 71

----------
- Tested on: MDA-MB-231 breast cancer cells
- assay: cells
- Type: cell-based, human
- settings: Homo sapiens, MDA-MB-231
metric-name: pIC50
pIC50 (log units): -log10 of the concentration in mol/L.

Problem: Identify pIC50 associated with the compound CCN(CC)CCCC(C)Nc1ccnc2cc(Cl)ccc12 (stereo not shown)
Solution: 4.13
